Test system: RPtag (large)
Assay: Association/dissociation kinetics of RPtag (small) peptides with RPtag (large) by fluorescence anisotropy
Type: binding, Thermoanaerobacter tengcongensis
Conditions: S*-LS transition; calculated from measured koff and Kd
No end group written: not given here.
test.readout: kon (M^−1 min^−1 ) (×10^7)

So what's the measured kon (M^−1 min^−1 ) (×10^7) for this one? LKLITKENVQ [Nd11] 7.1 ± 3.8 ×10^7 M^−1 min^−1

Any idea what kon (M^−1 min^−1 ) (×10^7) was measured for IANFIPAELKLITKANVQ [Nd3, p5a, e18a] ? 9.2 ± 0.4 ×10^7 M^−1 min^−1

Sample KIPNFIPAELKLITKANVQ [Nd2, e18a] — what was its kon (M^−1 min^−1 ) (×10^7)? 6.5 ± 0.7 ×10^7 M^−1 min^−1

Quick one: kon (M^−1 min^−1 ) (×10^7) of EKIPNFIPAELKLITKENVQ [Nd1] ? 3.4 ± 0.1 ×10^7 M^−1 min^−1

Quick one: kon (M^−1 min^−1 ) (×10^7) for ELKLITKENVQ [Nd10] ? 4.3 ± 0.7 ×10^7 M^−1 min^−1

Please report the recorded kon (M^−1 min^−1 ) (×10^7) for GEKIPNFIPAELKLITKENV [Cd1] . 1.1 ± 0.1 ×10^7 M^−1 min^−1

// returns reported kon (M^−1 min^−1 ) (×10^7) for input RIANFIPAELKLITKANVQ [Nd2, k3r, p5a, e18a] 3.4 ± 0.1 ×10^7 M^−1 min^−1

Endpoint output: kon (M^−1 min^−1 ) (×10^7) of GEKIPNFIPAELKLITAENVQ [k17a] . Value? 1.0 ± 0.1 ×10^7 M^−1 min^−1

Reported kon (M^−1 min^−1 ) (×10^7), sequence GEKIPNFIAAELKLITKENVQ [p9a] : ____ 1.4 ± 0.2 ×10^7 M^−1 min^−1

Which kon (M^−1 min^−1 ) (×10^7) value is on record for GEKIPNFIAPELALITKENVQ [k13a] ? 1.7 ± 0.1 ×10^7 M^−1 min^−1

# lookup: kon (M^−1 min^−1 ) (×10^7) of KIANFIPAELKLITKANVQ [Nd2, p5a, e18a, KIANFIPAELKLITKANVQ] 28 ± 2 ×10^7 M^−1 min^−1

Which kon (M^−1 min^−1 ) (×10^7) value is on record for GEAIPNFIPAELKLITKENVQ [k3a] ? 1.1 ± 0.1 ×10^7 M^−1 min^−1

I'd like to know its kon (M^−1 min^−1 ) (×10^7). The sequence in question is GEKIPAFIPAELKLITKENVQ [n6a] 0.45 ± 0.09 ×10^7 M^−1 min^−1

Fill blank: measured kon (M^−1 min^−1 ) (×10^7) of the sequence KIANFIPAELKLITK [Nd2, Cd4, p5a] is ____. 22 ± 1 ×10^7 M^−1 min^−1

Entry GEKIPNAIPAELKLITKENVQ [f7a] : reported kon (M^−1 min^−1 ) (×10^7) = ? 3.1 ± 0.1 ×10^7 M^−1 min^−1

Which value of kon (M^−1 min^−1 ) (×10^7) has been reported for AELKLITKENVQ [Nd9] in the records? 8.2 ± 0.9 ×10^7 M^−1 min^−1

What value of kon (M^−1 min^−1 ) (×10^7) has been recorded for this entry: GEKIPNFIPAELKLATKENVQ [i15a] 25 ± 6 ×10^7 M^−1 min^−1

What does the record list as kon (M^−1 min^−1 ) (×10^7) for GEKIPNFAPAELKLITKENVQ [i8a] ? 8.6 ± 0.9 ×10^7 M^−1 min^−1

Quick check: kon (M^−1 min^−1 ) (×10^7) of PNFIPAELKLITKENVQ [Nd4] ? 9.4 ± 0.4 ×10^7 M^−1 min^−1

// kon (M^−1 min^−1 ) (×10^7) lookup, key: KIANFIPAELKLITKE [Nd2, Cd3, p5a] 26 ± 1 ×10^7 M^−1 min^−1

What value of measured kon (M^−1 min^−1 ) (×10^7) is listed for GEKIPNFIPAELKLITKEN [Cd2] ? 9.8 ± 0.3 ×10^7 M^−1 min^−1

Quick one: kon (M^−1 min^−1 ) (×10^7) of GEKIPNFIPAELKLIAKENVQ [t16a] ? 7.5 ± 0.3 ×10^7 M^−1 min^−1

Bench note: what kon (M^−1 min^−1 ) (×10^7) did NFIPAELKLITKENVQ [Nd5] show? 9.6 ± 0.1 ×10^7 M^−1 min^−1

Entry under review: GEKIPNFIPAELKLITKENVQ [n19a, RPtag(small) with N19 changed to alanine] . Reported kon (M^−1 min^−1 ) (×10^7)? 14 ± 1 ×10^7 M^−1 min^−1

For the sequence KIANFIPAELKLITKANAA [Nd2, p5a, e18a, v20a, q21a] , what kon (M^−1 min^−1 ) (×10^7) is on record? 20 ± 1 ×10^7 M^−1 min^−1

Need kon (M^−1 min^−1 ) (×10^7) of KIPNFIPAELKLITK [Nd2, Cd4] , thanks. 20 ± 2 ×10^7 M^−1 min^−1

Return reported kon (M^−1 min^−1 ) (×10^7); argument: GEKIPNFIPAALKLITKENVQ [e11a] 0.46 ± 0.06 ×10^7 M^−1 min^−1

Item FIPAELKLITKENVQ [Nd6] has what recorded kon (M^−1 min^−1 ) (×10^7)? 12 ± 1 ×10^7 M^−1 min^−1
